Measured pIC50 (Full length PKA (Homo sapiens))
pIC50: −log10 of the molar value.

CCCOCc1cnn(C)c1-c1ccc2c(c1)CN([C@H](CN)Cc1cc(F)cc(F)c1)C2=O    5.30 to 6.30
Cn1ncc(Cl)c1-c1ccc2c(c1)CN([C@H](CN)CC1CCCCC1)C2=O    5.30 to 6.30
Cn1ncc(-c2ccncc2)c1-c1ccc2c(c1)CN([C@H](CN)Cc1cccc(F)c1)C2=O    < 5.30
Cn1ncc(COC2CCC2)c1-c1ccc2c(c1)CN([C@H](CN)Cc1cc(F)cc(F)c1)C2=O    5.30 to 6.30

(Q) Test system Full length PKA (Homo sapiens); read-out pIC50; what value for "Cn1nccc1-c1ccc2c(c1)CN([C@H](CN)Cc1cccs1)C2=O" ?
(A) 5.30 to 6.30

(Q) Item: "CCNC[C@H](Cc1cccc(F)c1)N1Cc2cc(-c3c(Cl)cnn3C)ccc2C1=O" Test system: Full length PKA (Homo sapiens) Read-out: pIC50 Value: ?
(A) < 5.30

(Q) Field: pIC50 (Full length PKA (Homo sapiens)). Entry: "Cc1cnn(C)c1-c1ccc2c(c1)CN([C@H](CN)Cc1cccc(F)c1)C2=O"
(A) 5.30 to 6.30

(Q) Provide value of pIC50 for this record tested with Full length PKA (Homo sapiens): "CC(C)OCc1cnn(C)c1-c1ccc2c(c1)CN([C@H](CN)Cc1cc(F)cc(F)c1)C2=O"
(A) 5.30 to 6.30
